Biological target: T1, Peptide-biotin
T1 construct: also called antigen
T1 sequence (Q8TD43 other isoform, or with tags, fused parts or gaps): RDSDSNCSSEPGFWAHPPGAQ
Test: SPR Biacore 8K affinity ranking; antibody Fc-captured, Peptide-biotin analyte, 1:1 fit
Procedure: For affinity ranking, antibodies were captured on the sensor chip through Fc capture method. Peptide-biotin was used as the analyte. The surface was regenerated before the injection of another antibody. The process was repeated until all antibodies are analyzed. The off-rates of antibodies were obtained from fitting the experimental data locally to 1:1 interaction model using the Biacore 8K evaluation software. The antibodies were ranked by their dissociation rate constants (off-rates, kd). […]
READOUT TYPE: pKd
Lab note — pKd values are minus log10 of concentrations in M.

Examples with their reported pKd follow.
BINDER	VALUE OBSERVED
humanized anti-TRPM4 antibody VH4 + VL1 (antibody, V domains shown, Full-length IgG) VH: QVQLQESGPGLVKPSQTLSLTCTVSGYSITSDYAWNWIRQHPGKGLQWMGYLSYSGVTSYNPSLKGRITISRDTSKNQFFLKLSSVTAADTAVYYCARKGTYYRYEGSYWYFDVWGQGTTVTVSS VL: DIQMTQSPSSLSASVGDRVTITCHANQNIDVWLSWYQQKPGKAPKLLIYKTSNLHTGVPSRFSGSGSGTDFTFTISSLQPEDIATYYCQQGQSYPLTFGGGTKLEIKR	8.35
humanized anti-TRPM4 antibody VH3 + VL3 (antibody, V domains shown, Full-length IgG) VH: QVQLQESGPGLVKPSQTLSLTCTVSGYSITSDYAWNWIRQHPGKGLQWMGYLSYSGVTSYNPSLKGRITISRDTSKNQFSLKLSSVTAADTAVYYCARKGTYYRYEGSYWYFDVWGQGTTVTVSS VL: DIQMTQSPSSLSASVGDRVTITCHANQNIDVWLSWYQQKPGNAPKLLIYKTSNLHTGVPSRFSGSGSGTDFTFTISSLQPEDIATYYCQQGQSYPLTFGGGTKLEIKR	8.36
humanized anti-TRPM4 antibody clone A2 (VH1 + VL1) (antibody, human IgG1, kappa, V domains shown, also called VH1 + VL1 (A2)) VH: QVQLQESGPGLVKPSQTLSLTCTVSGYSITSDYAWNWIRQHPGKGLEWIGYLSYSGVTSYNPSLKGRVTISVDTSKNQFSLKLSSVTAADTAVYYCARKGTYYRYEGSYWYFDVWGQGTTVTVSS VL: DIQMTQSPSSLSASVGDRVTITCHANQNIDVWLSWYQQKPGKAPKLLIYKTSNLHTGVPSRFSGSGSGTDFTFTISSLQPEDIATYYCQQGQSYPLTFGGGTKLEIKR	8.18

# pKd lookup, item humanized anti-TRPM4 antibody clone A5 (VH1 + VL4) (antibody, V domains shown, Full-length IgG, IgG1 heavy chain; also called VH1 + VL4 (A5)) VH: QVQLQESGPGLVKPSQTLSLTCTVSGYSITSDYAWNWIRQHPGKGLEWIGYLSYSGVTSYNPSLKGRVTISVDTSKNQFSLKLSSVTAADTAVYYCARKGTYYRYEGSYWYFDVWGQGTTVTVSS VL: DIQMTQSPSSLSASVGDRVTITCHANQNIDVWLSWYQQKPGNAPKLLIYKTSNLHTGVPSRFSGSGSGTDFTLTISSLQPEDIATYYCQQGQSYPLTFGGGTKLEIKR
8.00

Try this binder too: anti-TRPM4 chimeric antibody clone A1 (VH + VL) (antibody, V domains shown, also called VH + VL (A1)) VH: QVQLQESGPGLVKPSQSLSLTCTVTGYSITSDYAWNWIRQFPGNKLQWMGYLSYSGVTSYNPSLKGRISITRDTSKNQFFLQLSSVTPEDTATYYCARKGTYYRYEGSYWYFDVWGAGTTVTVSS VL: DIQMNQSPSSLSASLGDTITITCHANQNIDVWLSWYQQKPGNVPKLLIYKTSNLHTGVPSRFSGSGSGTDFTLTISSLQPEDIATYYCQQGQSYPLTFGGGTKLEIK
8.34

Try this binder too: humanized anti-TRPM4 antibody clone A7 (VH2 + VL2) (antibody, V domains shown, Full-length IgG, IgG1 heavy chain; also called VH2 + VL2 (A7)) VH: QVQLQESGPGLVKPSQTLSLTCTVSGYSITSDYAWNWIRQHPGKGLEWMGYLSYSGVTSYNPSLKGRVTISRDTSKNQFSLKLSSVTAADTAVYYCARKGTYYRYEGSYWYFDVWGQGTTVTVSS VL: DIQMTQSPSSLSASVGDRVTITCHANQNIDVWLSWYQQKPGKAPKLLIYKTSNLHTGVPSRFSGSGSGTDFTLTISSLQPEDIATYYCQQGQSYPLTFGGGTKLEIKR
7.94

Try this binder too: humanized anti-TRPM4 antibody VH4 + VL4 (antibody, V domains shown, Full-length IgG) VH: QVQLQESGPGLVKPSQTLSLTCTVSGYSITSDYAWNWIRQHPGKGLQWMGYLSYSGVTSYNPSLKGRITISRDTSKNQFFLKLSSVTAADTAVYYCARKGTYYRYEGSYWYFDVWGQGTTVTVSS VL: DIQMTQSPSSLSASVGDRVTITCHANQNIDVWLSWYQQKPGNAPKLLIYKTSNLHTGVPSRFSGSGSGTDFTLTISSLQPEDIATYYCQQGQSYPLTFGGGTKLEIKR
8.35

Try this binder too: humanized anti-TRPM4 antibody VH2 + VL4 (antibody, V domains shown, Full-length IgG) VH: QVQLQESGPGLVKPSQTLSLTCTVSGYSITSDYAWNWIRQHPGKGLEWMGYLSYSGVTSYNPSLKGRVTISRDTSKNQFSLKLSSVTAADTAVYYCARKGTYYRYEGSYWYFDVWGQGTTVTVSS VL: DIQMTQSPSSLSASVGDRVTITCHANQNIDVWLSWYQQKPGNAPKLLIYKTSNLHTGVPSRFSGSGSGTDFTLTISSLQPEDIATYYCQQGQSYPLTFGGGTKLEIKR
8.06

Try this binder too: humanized anti-TRPM4 antibody VH3 + VL1 (antibody, V domains shown, Full-length IgG) VH: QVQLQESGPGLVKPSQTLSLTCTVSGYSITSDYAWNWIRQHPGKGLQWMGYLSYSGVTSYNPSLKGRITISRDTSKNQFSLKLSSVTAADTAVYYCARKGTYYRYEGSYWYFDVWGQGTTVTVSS VL: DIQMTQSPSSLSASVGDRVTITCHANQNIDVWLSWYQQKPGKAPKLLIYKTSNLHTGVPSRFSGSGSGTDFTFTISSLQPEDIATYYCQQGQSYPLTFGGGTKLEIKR
8.36

Try this binder too: humanized anti-TRPM4 antibody VH4 + VL2 (antibody, V domains shown, Full-length IgG) VH: QVQLQESGPGLVKPSQTLSLTCTVSGYSITSDYAWNWIRQHPGKGLQWMGYLSYSGVTSYNPSLKGRITISRDTSKNQFFLKLSSVTAADTAVYYCARKGTYYRYEGSYWYFDVWGQGTTVTVSS VL: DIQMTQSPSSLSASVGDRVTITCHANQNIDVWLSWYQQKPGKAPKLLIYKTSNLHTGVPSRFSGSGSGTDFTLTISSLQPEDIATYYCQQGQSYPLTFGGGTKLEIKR
8.36

Taken from patent US20260209321A1.
